Origin of measurements: patent US20160347750A1

Some molecules, each annotated with its measured pIC50.
System: 797
assay protocol: Cellular assay, cell viability by ATPlite, 797 cells
Format: cell-based
stated conditions: 797 cell line, Table 2; read-out: 797 IC50
In textbook form, pIC50 equals minus log to base ten of the concentration in mol/L.

For the molecule shown here, `C[C@@H]1C(=O)N(C)c2ccc(N3CCc4cc(C(=O)NC5CCN(C)CC5)ccc43)nc2N1C1CCCC1` , give the reported pIC50.
6.64

For the molecule shown here, C[C@@H](Oc1cc(-n2cnc3ccc(CN4CCN(C)CC4)cc32)sc1C(N)=O)c1ccccc1C(F)(F)F [reference compound] , give the reported pIC50.
8.10

For the molecule shown here, `CC[C@@H]1C(=O)N(C)c2cnc(Nc3ccc(C(=O)NC4CCN(C)CC4)cc3OC3CCOCC3)nc2N1C1CCCC1` , give the reported pIC50.
7.06

----------
Some compounds, each annotated with its measured pIC50.
experimental target: BRDT (Homo sapiens, UniProt Q58F21)
assay protocol: BRDT IC50, Table 2
Assay type: binding
In textbook form, pIC50 equals minus log to base ten of the concentration in mol/L.

Before answering, review these 2 worked examples.
| molecule smiles | pIC50 |
| --- | --- |
| COc1cc(C(=O)NC2CCN(C)CC2)ccc1Nc1ccc2c(n1)N(C1CCCC1)[C@H](C)C(=O)N2C | 6.60 |
| CC[C@@H]1C(=O)N(CC)c2cnc(Nc3ccc(C(=O)NC4CCN(C)CC4)cc3OC)nc2N1C1CCCC1 | 5.88 |

For the compound shown here, `CC[C@@H]1C(=O)N(C)c2cnc(Nc3ccc(C(=O)NC4CCN(C)CC4)cc3OC3CCCC3)nc2N1C1CCCC1` , give the reported pIC50.
6.31

----------
Some compounds, each annotated with its measured IC50.
Test system: 797
assay protocol: Cellular assay, cell viability by ATPlite, 797 cells
Assay type: cell-based
stated conditions: 797 cell line, Table 2; read-out: 797 IC50
// note: answer is a bare numeric in nM

Before answering, review these 3 worked examples.
| molecule smiles | experimental target | unit spec | IC50 |
| --- | --- | --- | --- |
| CC[C@@H]1C(=O)N(CC)c2cnc(Nc3ccc(C(=O)NC4CCN(C)CC4)cc3OC)nc2N1C1CCCC1 | 797 | nM | 166 |
| CC[C@@H]1C(=O)N(C)c2ccc(Nc3ccc(C(=O)NC4CCN(C)CC4)cc3OC)nc2N1C1CCCC1 | 797 | nM | 701 |
| COc1cc(C(=O)NC2CCN(C)CC2)ccc1Nc1ncc2c(n1)N(C1CCCC1)[C@H](CC(C)C)C(=O)N2C | 797 | nM | 292 |

Now turn to the next compound.
Can you look up IC50 on 797 for `CC[C@@H]1C(=O)N(C)c2cnc(Nc3ccc(C(=O)NC4CCN(C)CC4)cc3OC3CCCC3)nc2N1C1CCCC1` ?
95

----------
experimental target: BRD4.1 (Homo sapiens)
measure: pIC50
In textbook form, pIC50 equals minus log to base ten of the concentration in mol/L.

Can you look up pIC50 on BRD4.1 (Homo sapiens) for `CC[C@@H]1C(=O)N(C)c2cnc(Nc3ccc(C(=O)N[C@H]4CC[C@H](N5CCN(CC6CC6)CC5)CC4)cc3OC)nc2N1C(C)C` ?
5.97

----------
# collection of IC50 values tested on BRDT (Homo sapiens, UniProt Q58F21)
// note: answer is a bare numeric in nM

Before answering, review these 3 worked examples.
| molecule smiles | IC50 [nM] |
| --- | --- |
| CC[C@@H]1C(=O)N(C)c2cnc(Nc3ccc(C(=O)NC4CCN(C)CC4)cc3OC3CCOCC3)nc2N1C1CCCC1 | 862 |
| CC[C@@H]1C(=O)N(C)c2cnc(N3CCc4cc(C(=O)NC5CCN(C)CC5)ccc43)nc2N1C1CCCC1 | 213 |
| CC[C@@H]1C(=O)N(C)c2cnc(Nc3ccc(C(=O)NC4CCN(C)CC4)cc3)nc2N1C1CCCC1 | 688 |

Now turn to the next molecule.
For the molecule shown here, `CC[C@@H]1C(=O)N(C)c2ccc(Nc3ccc(C(=O)NC4CCN(C)CC4)cc3OC)nc2N1C1CCCC1` , give the reported IC50.
859
